- assayed.target: T1, ERA GTPase (Staphylococcus aureus, UniProt Q2FY06 1-299)
- T1 sequence: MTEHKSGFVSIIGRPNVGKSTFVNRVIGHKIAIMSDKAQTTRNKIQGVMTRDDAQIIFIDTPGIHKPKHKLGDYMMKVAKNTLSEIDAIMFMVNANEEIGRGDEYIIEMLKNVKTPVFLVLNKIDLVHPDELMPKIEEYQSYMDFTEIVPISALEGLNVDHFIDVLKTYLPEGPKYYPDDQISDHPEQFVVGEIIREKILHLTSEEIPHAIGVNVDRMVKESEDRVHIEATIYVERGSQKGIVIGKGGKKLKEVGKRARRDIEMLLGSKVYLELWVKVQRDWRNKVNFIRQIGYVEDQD
- assay.info: ELONA
measured.metric: Kd

Requested read-out: Kd. Entry: TACTAGCCCTACCTGTACTCTCGAGCCGATTTTAAGGATC (ssDNA) [AptERA 2 (40 nt)]
243 nM
